tested on: KB-3-1; assay: Cytotoxic Profiling of Annotated Libraries Using Quantitative High-Throughput Screening (AID 1296008); conditions: Five cell lines viability, CellTiter-Glo ATP luminescence, 48-72 h; further: nearly all actives have a fitted effect of over 60% in size
Inconclusive results are not listed. Active and inactive are the calls of the source. The call rests on the fitted dose curve; in most records, active means well fitted inhibition curve with a large enough effect; inconclusive means small, poorly fitted or top-dose-only effect; inactive means flat fitted curve, though single readings scatter.
The categories you may choose from are active, inactive

Assay outcome for C[C@H]1O[C@@H](O[C@H]2CC[C@]3(CO)C4CC[C@]5(C)[C@@H](C6=CC(=O)OC6)CC[C@]5(O)[C@@H]4CC[C@H]3C2)[C@H](O)[C@H](O)[C@@H]1O[C@@H]1O[C@H](CO)[C@@H](O)[C@H](O)[C@H]1O (some centres undefined) : what was it? active

Lab log entry: Oc1cc[c]([Hg][Cl])cc1 — outcome as called in the assay? active

// outcome(item) with item = C[C@]12CC[C@@H](O[C@@H]3O[C@H](CO)[C@@H](O)[C@H](O)[C@H]3O)C[C@@]1(O)CCC1C2CC[C@]2(C)[C@@H](C3=CC(=O)OC3)CC[C@]12O (some centres undefined) active

Outcome? CC(C)(O)/C=C/C(=O)[C@](C)(O)[C@H]1[C@H](O)C[C@@]2(C)[C@@H]3CC=C4[C@@H](C[C@H](O)C(=O)C4(C)C)[C@]3(C)C(=O)C[C@]12C active

So what was the verdict on C[C@@H]1CCC/C=C/[C@H]2C[C@@H](O)C[C@@H]2[C@@H](O)/C=C/C(=O)O1 in this test? active

Lab log entry: CC1=C[C@H]2O[C@@H]3C[C@H]4OC(=O)/C=C/C=C/C(=O)OCC/C(C)=C/C(=O)OC[C@@]2(CC1)[C@]4(C)[C@]31CO1 — outcome as called in the assay? active

Could you please tell me the result logged for O=S(=O)(c1ccccc1F)N1CCOc2c(N3CCNCC3)cccc21 in this assay? inactive

Would you mind telling me which call this test gave C/C=C(\C)C(=O)OC1CC2C(CC=C3CC(OC4CC(OC)C(OC5CC(OC)C(OC6CC(OC)C(OC7CC(OC)C(O)C(C)O7)C(C)O6)C(C)O5)C(C)O4)CCC32C)C2(O)CCC(C(C)=O)C12C (centres undefined) ? inactive

Identify the outcome logged in this assay for the compound shown: Cc1c(Cl)c(OCC(=O)N2CCN(C)CC2)nc2sc(C(=O)NC3CC3)c(N)c12 inactive

For C=C1[C@@H](C)[C@H]2[C@H](Cc3ccccc3)NC(=O)[C@]23OC(=O)/C=C/C(=O)CCC[C@@H](C)C/C=C/[C@H]3[C@@H]1O , what call appears in the results of this test? active

What outcome does the record of this test show for C/C(=C\c1csc(C)n1)[C@@H]1C[C@@H]2O[C@@H]2CCC[C@H](C)[C@H](O)[C@@H](C)C(=O)C(C)(C)[C@@H](O)CC(=O)O1 ? active

Tell me the recorded outcome of this test for CO[C@H]1[C@H](O)[C@H](O[C@H]2CC[C@]3(C=O)C4CC[C@]5(C)[C@H](C6=CC(=O)OC6)CC[C@]5(O)C4CC[C@@H]3C2)O[C@@H](C)[C@@H]1O (some centres undefined) . active

Per the assay record, what outcome was assigned to COC1C=CC23c4cc5c(cc4COC2(O)CN(C)C3C1)OCO5 (centres undefined) ? inactive

Entry CC1CCCC(O)CCC/C=C/c2cc(O)cc(O)c2C(=O)O1 (centres undefined) : call = ? inactive

====

test: Primary qHTS for inhibitors of nuclear receptor binding SET domain protein 2 (NSD2) in an isogenic RCH-ACV NSD2 p.E1099K mutant (9B) (AID 1645876); conditions: RCH-ACV (leukaemia line) NSD2 E1099K (9B) viability, CellTiter-Glo, 72 h; series mostly up to 44.9 µM; further: nearly all actives have a fitted effect of over 70% in size
Results filed as inconclusive are left out. The source made the active and inactive calls. Calls come from the whole dose curve; as a rule, active = well fitted inhibition curve with a large enough effect; inconclusive = small, poorly fitted or top-dose-only effect; inactive = flat fitted curve, though single readings scatter.
Lab note: assign the record to one of t (active), f (inactive)

Entry CC(=O)OC[C@]12C[C@H](OC(C)=O)C(C)=C[C@H]1O[C@@H]1[C@H](O)[C@@H](O)[C@@]2(C)[C@]12CO2 : call = ? t

Recorded test call requested for C=C1C(=O)OC2/C=C(\COO)CC/C=C(\COC(C)=O)CC(OC(=O)C(C)CC)C12 (configuration not stated) t

Could you check what this test reported for C[C@H]1O[C@@H](O[C@H]2CC[C@]3(C=O)C4CC[C@]5(C)[C@@H](C6=CC(=O)OC6)CC[C@]5(O)[C@@H]4CC[C@]3(O)C2)C[C@@H](O)[C@@H]1O (some centres not stated) ? t

# lookup: test call for COC[C@@H]1OC(=O)/C(=C\N(C)CCCN(C)C)C2=C(O)C(=O)C3=C([C@@H](OC(C)=O)C[C@@]4(C)[C@@H]3CC[C@@H]4O)[C@@]21C t

Tell me the assay call for CN1C[C@@H]2CN(c3ccc(-c4ccccc4)nn3)C[C@@H]2C1 please. f

Recorded call for CC(=O)O[C@@H]1[C@@H](O)[C@H]2O[C@@H]3C=C(C)[C@@H](O)C[C@]3(CO)[C@]1(C)[C@]21CO1 ? t

What classification did C/C=C1/CN2CC[C@]34C(=Nc5ccc(OC)cc53)C2C[C@@H]1C4(CO)C(=O)OC (some centres not stated) end up with in this test? f

====

tested on: CP262; assay: qHTS profiling for inhibitors of Plasmodium falciparum proliferation (AID 504749); further: nearly all actives have a fitted effect of over 60% in size; settings: P. falciparum in erythrocytes, SYBR Green DNA, 72 h; series mostly up to 28.7 µM
Inconclusive results are not listed. Activity calls are given as the source filed them. The call rests on the fitted dose curve; in most records, active means well fitted inhibition curve with a large enough effect; inconclusive means small, poorly fitted or top-dose-only effect; inactive means flat fitted curve, though single readings scatter.
Classes to choose from: active, inactive

Fill in: this test's call for CC(C)[C@@]1(NC(=O)[C@H]2CC3c4cccc5[nH]cc(c45)C[C@H]3N(C)C2)O[C@@]2(O)C3CCCN3C(=O)[C@@H](Cc3ccccc3)N2C1=O (stereo not given in full) is ___ active

Please let me know the test result on file for O=C(O)c1ccccc1-c1c2cc(Br)c(=O)cc-2oc2[c]([Hg])c(O)c(Br)cc12 . inactive

For this molecule, state the assay outcome: CCN1C[C@]2(COC)[C@H](O)C[C@H](OC)[C@]34C1C([C@H](OC)[C@H]23)[C@]1(OC(C)=O)C2[C@@H](OC(=O)c3ccccc3)C(O)(C[C@H]24)[C@@H](OC)[C@@H]1O inactive

State the result this test recorded for CCCCCCCCCC[N+](C)(C)CCCCCCCCCC . active

Check the results log: what was the call for CO[C@H]1[C@@H](O)CC(OC2[C@@H](O)CC(OC3[C@@H](O)C[C@H](OC4CC[C@@]5(C)C(CCC6C5CC(O)[C@]5(C)[C@H](C7=CC(=O)OC7)CCC65O)C4)O[C@@H]3C)O[C@@H]2C)O[C@@H]1C (stereo not given in full) ? inactive

====

assay: qHTS for Inhibitors of the Functional Ribonucleoprotein Complex (vRNP) of Lassa (LASV) Arenavirus: LASV Primary Screen - GLuc reporter signal (AID 1347082); conditions: LASV minigenome vRNP, Gaussia luciferase reporter; series mostly up to 57.5 µM; further: nearly all actives have a fitted effect of over 60% in size
Inconclusive results are not listed. Calls of active or inactive are those of the source. Calls come from the whole dose curve; tested in HEK293 reporter line.
Output constraint: value belongs to active, inactive

Given Nc1nc2c(ncn2[C@@H]2O[C@H](CO)[C@@H](O)[C@@H]2O)c(=O)[nH]1 , state the outcome it received in this test. inactive

Give the logged outcome of this assay for the following compound: COc1cc(C2C(c3ccccc3)C(c3cc(OC)cc(=O)o3)C2c2ccccc2)oc(=O)c1 (configuration not stated) inactive

I'd appreciate the recorded outcome for CN(C)CCc1cc2c(c3c1ccc1ccccc13)OCO2 from this test. inactive

# fetch the recorded call for C=CCn1c(=O)c2c(nc(-c3ccc(S(=O)(=O)O)cc3)n2C)n(C)c1=O here inactive

For C[N+](C)(C)C[C@H](O)CC(=O)[O-] , what call appears in the results of this test? inactive

Please indicate how the test categorized CS(=O)(=O)c1ccc(C2=C(c3ccccc3)C(=O)OC2)cc1 . inactive

Please share the test call associated with O=C(Nc1ccc(Br)cc1)C(c1ccccc1)c1ccccc1 . inactive

Query: recorded result category for O=C1c2ccccc2-n2c1nc1ccccc1c2=O in this test inactive

Name the outcome recorded for O=C(O)[C@H]1NC[C@H]2C[C@H]21 in the assay. inactive

Test call, this compound: C[C@H](Cc1ccccc1)Nc1ncnc2c1ncn2[C@@H]1O[C@H](CO)[C@@H](O)[C@H]1O inactive

Entry O=C(Nc1nnc(-c2ccco2)o1)c1cc(-c2ccccc2)nc2ccccc12 : call = ? inactive

Returns: the outcome recorded for O=c1c(-c2ccc(O)cc2)coc2cc(O)ccc12 in this assay. inactive

Status in this test for CC(=O)NC(Cc1cnc[nH]1)C(=O)O (configuration not stated) ? inactive

I'd appreciate the recorded outcome for C=CCNC1=C2C[C@@H](C)C[C@H](OC)[C@@H](O)[C@@H](C)C=C(C)[C@H](OC(N)=O)[C@@H](OC)C=CC=C(C)C(=O)NC(=CC1=O)C2=O from this test. active

Outcome logged for O=C(O)[C@H](CC(=O)N1C[C@@H]2CCCC[C@H]2C1)Cc1ccccc1 in this assay: inactive

Recorded call for O=C(c1ccccc1)N1CCCCC1 ? inactive

Hi, sorry to bother you, what did the test record for Cc1cc2c(c(CO)c1CCO)C(=O)[C@@H](C)[C@@H]2O ? inactive

Which outcome did this test record for the compound CCCCCCCCCCCCCC(=O)OCC(O)CO (configuration not stated) ? inactive

Check the results log: what was the call for OC[C@H]1O[C@H](OCc2ccccc2)[C@H](O[C@@H]2OC[C@@H](O)[C@H](O)[C@H]2O)[C@@H](O)[C@@H]1O ? inactive

What was the test verdict on Clc1cc(Cl)cc(CNc2ncncc2-c2ccc3c(c2)OCO3)c1 ? inactive

What was the test verdict on Cc1ccc(C(C)(O)c2nc3ccccc3s2)c(C)c1 (configuration not stated) ? inactive

Test call, this compound: CC(C)C[C@H](NC(=O)[C@H](O)[C@H](N)Cc1ccccc1)C(=O)O inactive
